Just for reference, ChEMBL document CHEMBL4011590 is where these values come from.

test system: Mycobacterium tuberculosis; experiment: Antimycobacterial activity against Mycobacterium tuberculosis H37Rv CNCTC My 331/88 after 14 days by micromethod; type: functional; conditions: H37Rv CNCTC My 331/88, 336 h
measured-property: MIC99
Be sure to follow the number with its unit.

O=[N+]([O-])c1cc(-c2nnn(CCCSc3nnnn3-c3ccc(Cl)c(Cl)c3)n2)cc([N+](=O)[O-])c1    0.25 µM
O=[N+]([O-])c1cc(Sc2nnnn2Cc2ccccc2)cc([N+](=O)[O-])c1    1 µM
Cc1ccc(Cn2nnc(-c3cc([N+](=O)[O-])cc([N+](=O)[O-])c3)n2)cc1    0.125 µM
O=[N+]([O-])c1cc(-c2nnn(Cc3ccc(F)cc3)n2)cc([N+](=O)[O-])c1    0.25 µM
O=[N+]([O-])c1cc(Sc2nnnn2C2CCCCC2)cc([N+](=O)[O-])c1    1 µM
O=[N+]([O-])c1cc(Sc2nnnn2-c2ccccc2)cc([N+](=O)[O-])c1    2 µM
O=[N+]([O-])c1cc(-c2nnn(CCCSc3nnnn3-c3ccc(Br)cc3)n2)cc([N+](=O)[O-])c1    0.5 µM
O=[N+]([O-])c1cc(-c2nnn(CSc3nnnn3C3CCCCC3)n2)cc([N+](=O)[O-])c1    0.03 µM
O=[N+]([O-])c1cc(-c2nnn(Cc3ccccc3F)n2)cc([N+](=O)[O-])c1    0.5 µM
O=[N+]([O-])c1cc(-c2nnnn2Cc2ccccc2)cc([N+](=O)[O-])c1    2 µM

Lookup: # input compound: CCCCCCCCCCCCCCCCn1nnnc1SCn1nnc(-c2cc([N+](=O)[O-])cc([N+](=O)[O-])c2)n1 ; wanted: its MIC99
Found: 4 µM

Lookup: # input compound: CO[C@H]1/C=C/O[C@@]2(C)Oc3c(C)c(O)c4c(O)c(c(/C=N/N5CCN(C)CC5)c(O)c4c3C2=O)NC(=O)/C(C)=C\C=C\[C@H](C)[C@H](O)[C@@H](C)[C@@H](O)[C@@H](C)[C@H](OC(C)=O)[C@@H]1C [RIFAMPIN] ; wanted: its MIC99
Found: 0.25 µM

Lookup: # input compound: COc1ccccc1-n1nnnc1SCn1nnc(-c2cc([N+](=O)[O-])cc([N+](=O)[O-])c2)n1 ; wanted: its MIC99
Found: 0.25 µM

Lookup: # input compound: CCCn1nnc(-c2cc([N+](=O)[O-])cc([N+](=O)[O-])c2)n1 ; wanted: its MIC99
Found: 8 µM

Lookup: # input compound: Cc1ccc(Cn2nnnc2-c2cc([N+](=O)[O-])cc([N+](=O)[O-])c2)cc1 ; wanted: its MIC99
Found: 1 µM

Lookup: # input compound: O=[N+]([O-])c1cc(-c2nnn(Cc3ccc(F)c(F)c3)n2)cc([N+](=O)[O-])c1 ; wanted: its MIC99
Found: 0.25 µM

Lookup: # input compound: O=[N+]([O-])c1cc(-c2nnn(Cc3ccccc3)n2)cc([N+](=O)[O-])c1 ; wanted: its MIC99
Found: 0.5 µM

Lookup: # input compound: O=[N+]([O-])c1cc(-c2nnn(CCSc3nnnn3-c3ccc(Cl)c(Cl)c3)n2)cc([N+](=O)[O-])c1 ; wanted: its MIC99
Found: 0.25 µM

Lookup: # input compound: O=[N+]([O-])c1cc(-c2nnn(Cc3cccc(Br)c3)n2)cc([N+](=O)[O-])c1 ; wanted: its MIC99
Found: 0.25 µM

Lookup: # input compound: O=[N+]([O-])c1cc(-c2nnn(CSc3nnnn3-c3ccc(Br)cc3)n2)cc([N+](=O)[O-])c1 ; wanted: its MIC99
Found: 0.03 µM

Lookup: # input compound: O=[N+]([O-])c1cc(-c2nnn(CSc3nnnn3-c3ccccc3)n2)cc([N+](=O)[O-])c1 ; wanted: its MIC99
Found: 0.125 µM

Lookup: # input compound: O=[N+]([O-])c1cc(-c2nnn(Cc3cccc(Cl)c3)n2)cc([N+](=O)[O-])c1 ; wanted: its MIC99
Found: 0.5 µM

Lookup: # input compound: O=[N+]([O-])c1cc(-c2nnn(CCCCSc3nnnn3-c3ccc(Br)cc3)n2)cc([N+](=O)[O-])c1 ; wanted: its MIC99
Found: 0.5 µM

Lookup: # input compound: COc1ccc(Cn2nnc(-c3cc([N+](=O)[O-])cc([N+](=O)[O-])c3)n2)cc1 ; wanted: its MIC99
Found: 0.03 µM
